# systemTested: TrkA (histidine-tagged recombinant human TrkA, cytoplasmic domain) (Homo sapiens (Human))
# Sequence (P04629 440-796): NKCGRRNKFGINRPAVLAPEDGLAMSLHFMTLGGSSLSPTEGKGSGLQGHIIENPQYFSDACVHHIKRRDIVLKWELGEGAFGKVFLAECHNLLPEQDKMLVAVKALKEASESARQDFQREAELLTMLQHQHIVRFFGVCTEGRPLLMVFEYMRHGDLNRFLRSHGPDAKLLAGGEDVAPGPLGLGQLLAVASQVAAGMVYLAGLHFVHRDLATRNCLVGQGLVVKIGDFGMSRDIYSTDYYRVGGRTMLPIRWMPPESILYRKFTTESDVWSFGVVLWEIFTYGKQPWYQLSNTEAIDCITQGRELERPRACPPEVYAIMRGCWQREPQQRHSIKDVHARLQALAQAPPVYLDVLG
# runDescription: TrkA ELISA Assay
# Assay type: biochemical
# runConditions: Table 1; ELISA, 500 μM ATP; read-out: TrkA Enzyme IC50
measure: IC50 (nM)
The reply should contain only the number, in nM.

Before answering, review these 8 worked examples.
| compound | unitAnnotation | IC50 |
| --- | --- | --- |
| CC1(NC(=O)c2cnn3ccc(N4[C@H](CO)CC[C@@H]4c4cncc(F)c4)nc23)CC1 | nM | 8.6 |
| CC(C)[C@@H](CO)NC(=O)c1cnn2ccc(N3CCC[C@@H]3c3cc(F)ccc3F)nc12 | nM | 8.5 |
| O=C(NCCO)c1cnn2ccc(N3CCCC3c3cc(F)ccc3F)nc12 (stereo not shown) | nM | 1.1 |
| C[C@@H](O)[C@H](CO)NC(=O)c1cnn2ccc(N3CCC[C@@H]3c3cc(F)ccc3F)nc12 | nM | 16.3 |
| NC(=O)c1cnn2ccc(N3CCC[C@@H]3c3cc(F)cc(OCC(O)CO)c3)nc12 (stereo partly shown) | nM | 17.1 |
| O=C(O)CC1CCN(C(=O)c2cnn3ccc(N4CCC[C@@H]4c4cc(F)ccc4F)nc23)CC1 | nM | 238 |
| CNC(=O)c1cnn2ccc(N3CCC[C@@H]3c3cncc(F)c3)nc12 | nM | 29.9 |
| O=C(c1cnn2ccc(N3CCC[C@@H]3c3cncc(F)c3)nc12)N1CCCCC1 | nM | 794 |

stdin: May I ask what IC50 has been recorded for `O=C(Nc1ccc(F)cn1)c1cnn2ccc(N3CCC[C@@H]3c3cncc(F)c3)nc12` ?
stdout: 5.4

stdin: May I ask what IC50 has been recorded for `O=C(N[C@@H]1CCC[C@@H]1O)c1cnn2ccc(N3CCC[C@@H]3c3cncc(F)c3)nc12` ?
stdout: 142

stdin: May I ask what IC50 has been recorded for `CC(C)(O)CNC(=O)c1cnn2ccc(N3CCC[C@@H]3c3cncc(F)c3)nc12` ?
stdout: 37.8

stdin: May I ask what IC50 has been recorded for `O=C(N[C@H]1CCC[C@H]1O)c1cnn2ccc(N3CCC[C@@H]3c3cncc(F)c3)nc12` ?
stdout: 83.1

stdin: May I ask what IC50 has been recorded for Cc1ncc(F)cc1[C@H]1CCCN1c1ccn2ncc(C(=O)NC3CC3)c2n1 (stereo in doubt) ?
stdout: 17.1

stdin: May I ask what IC50 has been recorded for `O=C(NC1CCOCC1)c1cnn2ccc(N3CCC[C@@H]3c3cc(F)ccc3F)nc12` ?
stdout: 0.6

stdin: May I ask what IC50 has been recorded for `CC(C)(O)CNC(=O)c1cnn2ccc(N3CCC[C@@H]3c3cc(F)ccc3F)nc12` ?
stdout: 2.15

stdin: May I ask what IC50 has been recorded for `COCCOc1cc(F)cc([C@H]2CCCN2c2ccn3ncc(C(=O)NC4CC4)c3n2)c1` ?
stdout: 5.37

----------
# systemTested: TrkA (histidine-tagged recombinant human TrkA, cytoplasmic domain) (Homo sapiens (Human))
# runDescription: TrkA ELISA Assay
# Type: biochemical
# runConditions: Table 1; ELISA, 500 μM ATP; read-out: TrkA Enzyme IC50
# IC50 per entry
The reply should contain only the number, in nM.

stdin: May I ask what IC50 has been recorded for `COc1ncc(F)cc1[C@H]1CCCN1c1ccn2ncc(C(=O)NC3CC3)c2n1` ?
stdout: 1.3

stdin: May I ask what IC50 has been recorded for `NC(=O)c1cnn2ccc(N3CCC[C@@H]3c3cc(F)ccc3OCCN3CCOCC3)nc12` ?
stdout: 26.7

stdin: May I ask what IC50 has been recorded for `CC(C)(CF)NC(=O)c1cnn2ccc(N3CCC[C@@H]3c3cncc(F)c3)nc12` ?
stdout: 8.65

stdin: May I ask what IC50 has been recorded for `CC(C)(N)CNC(=O)c1cnn2ccc(N3CCC[C@@H]3c3cc(F)ccc3F)nc12` ?
stdout: 9.4

stdin: May I ask what IC50 has been recorded for `C[C@@H](O)CNC(=O)c1cnn2ccc(N3CCC[C@@H]3c3cncc(F)c3)nc12` ?
stdout: 37.2

stdin: May I ask what IC50 has been recorded for `CC(C)(CN1CCOCC1)NC(=O)c1cnn2ccc(N3CCC[C@@H]3c3cc(F)ccc3F)nc12` ?
stdout: 3.45

stdin: May I ask what IC50 has been recorded for `CC(C)(C)NC(=O)c1cnn2ccc(N3CCC[C@@H]3c3cccc(F)c3)nc12` ?
stdout: 2.1

stdin: May I ask what IC50 has been recorded for `C[C@H](CO)NC(=O)c1cnn2ccc(N3CCC[C@@H]3c3cncc(F)c3)nc12` ?
stdout: 15.3

stdin: May I ask what IC50 has been recorded for `COc1ccc(F)cc1[C@H]1CCCN1c1ccn2ncc(C(=O)NC3CC3)c2n1` ?
stdout: 0.6

stdin: May I ask what IC50 has been recorded for `O=C(c1cnn2ccc(N3CCC[C@@H]3c3cncc(F)c3)nc12)N1CCCC1` ?
stdout: 568

stdin: May I ask what IC50 has been recorded for `O=C(NC1CCC1)c1cnn2ccc(N3CCC[C@@H]3c3cncc(F)c3)nc12` ?
stdout: 11.7

----------
# systemTested: TrkA (histidine-tagged recombinant human TrkA, cytoplasmic domain) (Homo sapiens (Human))
# runDescription: TrkA ELISA Assay
# Type: biochemical
# runConditions: Table 1; ELISA, 500 μM ATP; read-out: TrkA Enzyme IC50
pIC50: −log10 of the molar value.
Rule: condition met for pIC50 not less than 8, condition not met for anything less.

Please review the entries below; each comes with its answer.
| smilesInput | systemTested | categoryLabel |
| --- | --- | --- |
| O=C(c1cnn2ccc(N3CCC[C@@H]3c3cncc(F)c3)nc12)N1CC(O)C1 | TrkA (histidine-tagged recombinant human TrkA, cytoplasmic domain) (Homo sapiens (Human)) | condition not met |
| NC(=O)c1cnn2ccc(N3CCC[C@@H]3c3cc(F)ccc3F)nc12 | TrkA (histidine-tagged recombinant human TrkA, cytoplasmic domain) (Homo sapiens (Human)) | condition met |
| O=C(NC[C@@H](O)CO)c1cnn2ccc(N3CCC[C@@H]3c3cc(F)ccc3C(F)(F)F)nc12 | TrkA (histidine-tagged recombinant human TrkA, cytoplasmic domain) (Homo sapiens (Human)) | condition met |

stdin: Item `O=C(c1cnn2ccc(N3CCC[C@@H]3c3cncc(F)c3)nc12)N1CCC1` with pIC50 of 8 or above?
stdout: condition not met

stdin: Item `COc1ncc(F)cc1[C@H]1CCCN1c1ccn2ncc(C(=O)NC(C)(C)C)c2n1` with pIC50 of 8 or above?
stdout: condition met

----------
# pIC50 per entry
# systemTested: TrkA (histidine-tagged recombinant human TrkA, cytoplasmic domain) (Homo sapiens (Human))
# runDescription: TrkA ELISA Assay
# Format: biochemical
# runConditions: Table 1; ELISA, 500 μM ATP; read-out: TrkA Enzyme IC50
Reminder that pIC50 means the negative base-10 logarithm of the concentration expressed in mol/L.

| compound | measure | endpointValue |
| --- | --- | --- |
| CONC(=O)c1cnn2ccc(N3CCC[C@@H]3c3cncc(F)c3)nc12 [Example 73] | pIC50 | 7.31 |
| COc1ncc(F)cc1[C@H]1CCCN1c1ccn2ncc(C(=O)NC[C@H](O)CO)c2n1 [Example 143] | pIC50 | 8.10 |
| COCCNC(=O)c1cnn2ccc(N3CCC[C@@H]3c3cc(F)cnc3C)nc12 [Example 191] | pIC50 | 7.16 |

With those in mind, consider the next compound.
stdin: May I ask what pIC50 has been recorded for C[C@@H](CO)NC(=O)c1cnn2ccc(N3CCC[C@@H]3c3cncc(F)c3)nc12 [Example 116] ?
stdout: 7.58

----------
# systemTested: TrkA (histidine-tagged recombinant human TrkA, cytoplasmic domain) (Homo sapiens (Human))
# runDescription: TrkA ELISA Assay
# Type: biochemical
# runConditions: Table 1; ELISA, 500 μM ATP; read-out: TrkA Enzyme IC50
Mark each entry fulfilled if its IC50 sits below 7 nM, and not fulfilled for all others.

Please review the entries below; each comes with its answer.
| molecule | systemTested | categoryLabel |
| --- | --- | --- |
| Cn1cc(F)cc([C@H]2CCCN2c2ccn3ncc(C(=O)NC4(C)CC4)c3n2)c1=O [Example 237] | TrkA (histidine-tagged recombinant human TrkA, cytoplasmic domain) (Homo sapiens (Human)) | fulfilled |
| Cn1cnc(CNC(=O)c2cnn3ccc(N4CCC[C@@H]4c4cc(F)ccc4F)nc23)c1 [Example 21] | TrkA (histidine-tagged recombinant human TrkA, cytoplasmic domain) (Homo sapiens (Human)) | fulfilled |
| O=C(NC1CCC[C@@H]1O)c1cnn2ccc(N3CCCC3c3cncc(F)c3)nc12 (some centres unmarked) [Example 120] | TrkA (histidine-tagged recombinant human TrkA, cytoplasmic domain) (Homo sapiens (Human)) | not fulfilled |
| CC1(C)OCC(COc2ccc(F)cc2[C@H]2CCCN2c2ccn3ncc(C(=O)NC4CC4)c3n2)O1 (some centres unmarked) [Example 204] | TrkA (histidine-tagged recombinant human TrkA, cytoplasmic domain) (Homo sapiens (Human)) | not fulfilled |
| Cc1ncc(F)cc1[C@H]1CCCN1c1ccn2ncc(C(=O)NC3(CO)CC3)c2n1 [Example 193] | TrkA (histidine-tagged recombinant human TrkA, cytoplasmic domain) (Homo sapiens (Human)) | not fulfilled |
| Cc1ncc(F)cc1[C@H]1CCCN1c1ccn2ncc(C(=O)N[C@H]3CN4CCC3CC4)c2n1 [Example 198] | TrkA (histidine-tagged recombinant human TrkA, cytoplasmic domain) (Homo sapiens (Human)) | not fulfilled |
| Cn1cc(F)cc([C@H]2CCCN2c2ccn3ncc(C(=O)Nc4cccnc4)c3n2)c1=O [Example 231] | TrkA (histidine-tagged recombinant human TrkA, cytoplasmic domain) (Homo sapiens (Human)) | not fulfilled |
| CC(C)(CO)NC(=O)c1cnn2ccc(N3CCC[C@@H]3c3cc(F)ccc3F)nc12 [Example 8] | TrkA (histidine-tagged recombinant human TrkA, cytoplasmic domain) (Homo sapiens (Human)) | fulfilled |

# input for lookup
stdin: IC50 under 7 nM? Item: O=C(NCCN1CCOCC1)c1cnn2ccc(N3CCC[C@@H]3c3cc(F)ccc3F)nc12 [Example 4]
stdout: fulfilled
